Let's look at some molecules and their measured inhibition.
# protocol_notes: growth inhibition, single agents and combos, ICB984, cell-based, cisplatin or BGB combos, synergistic combos for chromothripsis tumors (AID 1671451);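 also: cells exposed for 96 hours before readout; 0% = vehicle DMSO and 100% = killing by high DMSO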
# condition_context: ICB984 medulloblastoma cells, drug combinations, cisplatin combo, at 0.5 µM, stronger effect = higher value
Number only, in %; omit the unit.

* Cc1cc(C)cc(C(=O)NOCCCCCC(=O)NO)c1 | -27.8
* Cc1cn(C2CC(O)C(COP(=O)(O)OP(=O)(O)OP(=O)(O)O)O2)c(=O)[nH]c1=O (stereo unspecified) | 3.65

Req: Entry under review: O=c1[nH]cnc2c1ncn2C1CCC(CO)O1 (stereo unspecified) . Reported inhibition?
Resp: -0.57

Req: Entry under review: O=c1[nH]c(=S)[nH]c2nc(-c3ccccc3)c(-c3ccccc3)nc12 . Reported inhibition?
Resp: -15.9

Req: Entry under review: NC(=S)NN=Cc1ncccc1N . Reported inhibition?
Resp: -17.6

Req: Entry under review: CC1OC(CC(=O)O)CC2=C1C(=O)c1c(O)cccc1C2=O (stereo unspecified) . Reported inhibition?
Resp: 10.8

Req: Entry under review: Nc1ncn(C2OC(CO)C(O)C2O)c(=O)n1 (stereo unspecified) . Reported inhibition?
Resp: -8.65

Req: Entry under review: CC1CN(c2c(F)c(N)c3c(=O)c(C(=O)O)cn(C4CC4)c3c2F)CC(C)N1 (stereo unspecified) . Reported inhibition?
Resp: 11.3

Req: Entry under review: C#CCC(CCCCCC)C(=O)O (stereo unspecified) . Reported inhibition?
Resp: -14.1

Req: Entry under review: COc1cccc2c1C(=O)c1c(O)c3c(c(O)c1C2=O)CC(O)(C(=O)CO)CC3OC1CC(N)C(OC2CCCCO2)C(C)O1 (stereo unspecified) . Reported inhibition?
Resp: -60.7

Req: Entry under review: C[n+]1ccc(-c2c3nc(c(-c4cc[n+](C)cc4)c4ccc([nH]4)c(-c4cc[n+](C)cc4)c4nc(c(-c5cc[n+](C)cc5)c5ccc2[nH]5)C=C4)C=C3)cc1 . Reported inhibition?
Resp: -35.2
